Biological target: human SPPL2a (Homo sapiens, UniProt Q8TCT8)
Sequence (Q8TCT8 26-520): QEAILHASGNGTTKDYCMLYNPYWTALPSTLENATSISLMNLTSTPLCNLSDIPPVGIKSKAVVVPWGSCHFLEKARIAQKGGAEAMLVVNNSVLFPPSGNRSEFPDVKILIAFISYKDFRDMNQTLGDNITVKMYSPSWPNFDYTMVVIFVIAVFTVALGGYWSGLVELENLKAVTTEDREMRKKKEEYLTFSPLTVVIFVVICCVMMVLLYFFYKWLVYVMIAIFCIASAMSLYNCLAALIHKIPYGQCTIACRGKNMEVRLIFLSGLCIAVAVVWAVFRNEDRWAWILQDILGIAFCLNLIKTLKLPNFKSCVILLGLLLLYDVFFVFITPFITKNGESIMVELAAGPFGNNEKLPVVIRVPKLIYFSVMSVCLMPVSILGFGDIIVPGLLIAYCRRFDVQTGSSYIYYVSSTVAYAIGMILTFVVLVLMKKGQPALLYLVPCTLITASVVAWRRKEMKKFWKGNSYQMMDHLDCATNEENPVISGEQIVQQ
Assay: Sppl2a TL (translocation) imaging assay in U-2 OS cells
Assay type: cell-based
Parameters: expressed in transfected cells
Settings: U-2 OS cells expressing human SPPL2a and EGFP-TNFα(aa1-76) NTF substrate; 24 h
The threshold is 10 nM. Values of IC50 beneath it are tagged yes (1); values meeting or exceeding it are tagged no (0).

Please review the following examples before continuing.
{"chemicalSmiles": "CC(C)NC(=O)c1ncc(NC(=O)C[C@@H](C)C(=O)N[C@@H]2C(=O)N3CCCN3Cc3ccccc32)s1", "studyTarget": "human SPPL2a (Homo sapiens, UniProt Q8TCT8)", "cat": "no (0)"}
{"chemicalSmiles": "CCc1nnsc1C(=O)NC[C@@H](CC)C(=O)N[C@@H]1C(=O)N2CC3(CC3)CN2C(=O)c2ccccc21", "studyTarget": "human SPPL2a (Homo sapiens, UniProt Q8TCT8)", "cat": "no (0)"}
{"chemicalSmiles": "C[C@H](CC(=O)Nc1cc(C(=O)NC2CC2)nn1C)C(=O)N[C@@H]1C(=O)N2CCCN2Cc2ccccc21", "studyTarget": "human SPPL2a (Homo sapiens, UniProt Q8TCT8)", "cat": "no (0)"}
{"chemicalSmiles": "C[C@H](CC(=O)Nc1cc(NC(=O)C(F)(F)C(F)(F)F)nn1C)C(=O)N[C@@H]1C(=O)N2CCCN2Cc2ccccc21", "studyTarget": "human SPPL2a (Homo sapiens, UniProt Q8TCT8)", "cat": "yes (1)"}
{"chemicalSmiles": "Cc1nc(C(=O)NC(C)C)sc1C(=O)NC[C@H](C(=O)N[C@@H]1C(=O)N2CCCN2Cc2ccccc21)C(F)(F)F", "studyTarget": "human SPPL2a (Homo sapiens, UniProt Q8TCT8)", "cat": "yes (1)"}

*Q* API: query returns whether the compound falls strictly under 10 nM in IC50. Query: CC[C@H](CNC(=O)c1sc(-c2ccc(C(F)(F)F)nc2)nc1C)C(=O)N[C@@H]1C(=O)N2CCCN2Cc2ccccc21
*A* no (0)

*Q* API: query returns whether the compound falls strictly under 10 nM in IC50. Query: Cc1nc(C(=O)NCC(F)F)sc1C(=O)NC[C@H](C(=O)N[C@@H]1C(=O)N2CCCN2Cc2ccccc21)C1CC1
*A* yes (1)

----------
Biological target: human SPPL2a (Homo sapiens)
Assay: Sppl2a TL (translocation) imaging assay in U-2 OS cells
Format: cell-based
Parameters: expressed in transfected cells
Details: U-2 OS cells expressing human SPPL2a and EGFP-TNFα(aa1-76) NTF substrate; 24 h
parameter: pIC50
Scale: pIC50 equals -log10([C]), with [C] in mol/L.

Past entries and their recorded results:
{"chemicalSmiles": "C[C@@H](CF)NC(=O)c1cc(NC(=O)C[C@H](C(=O)N[C@@H]2C(=O)N3CCCN3Cc3c(F)cccc32)C2CC2)n(C)n1", "pIC50": 7.82}
{"chemicalSmiles": "Cc1noc(C)c1C(=O)NC[C@H](C(=O)N[C@@H]1C(=O)N2CCCN2C(=O)c2ccccc21)C(F)(F)F", "pIC50": 7.07}
{"chemicalSmiles": "CC(C)C(=O)Nc1cc(NC(=O)C[C@H](C(=O)N[C@@H]2C(=O)N3CCCN3Cc3ccccc32)C2CCC2)n(C)n1", "pIC50": 9.22}
{"chemicalSmiles": "Cc1cccc(C)c1NC(=O)c1cc(NC(=O)C[C@@H](C)C(=O)N[C@@H]2C(=O)N3CCCN3Cc3ccccc32)n(C)n1", "pIC50": 7.82}
{"chemicalSmiles": "COc1ccc(-c2cc(NC(=O)C[C@@H](C)C(=O)N[C@@H]3C(=O)N4CCCN4Cc4ccccc43)n(C)n2)cn1", "pIC50": 7.89}

human SPPL2a (Homo sapiens) pIC50 of Cc1nn(-c2ccc(C(F)(F)F)nc2)cc1NC(=O)C[C@@H](C)C(=O)N[C@@H]1C(=O)N2CCCN2Cc2ccccc21 is 7.92

human SPPL2a (Homo sapiens) pIC50 of CC[C@H](CNC(=O)c1sc(C(=O)NCC(F)F)nc1C)C(=O)N[C@@H]1C(=O)N2CCCN2Cc2ccccc21 is 8.52

human SPPL2a (Homo sapiens) pIC50 of CC[C@H](CNC(=O)c1sc(-c2cnn(C(F)F)c2)nc1Cl)C(=O)N[C@@H]1C(=O)N2CC3(CC3)CN2C(=O)c2ccccc21 is 7.11

human SPPL2a (Homo sapiens) pIC50 of CC[C@H](CNC(=O)c1sc(-c2ccc(OC)nc2)nc1Cl)C(=O)N[C@@H]1C(=O)N2CCCN2C(=O)c2ccccc21 is 7.37

human SPPL2a (Homo sapiens) pIC50 of CCNC(=O)c1nc(C)c(C(=O)NC[C@H](C(=O)N[C@@H]2C(=O)N3CCCN3Cc3ccccc32)C2CC2)s1 is 8.30

human SPPL2a (Homo sapiens) pIC50 of C[C@H](CC(=O)Nc1cc(-c2ccco2)nn1C1CC1)C(=O)N[C@@H]1C(=O)N2CCCN2Cc2ccccc21 is 7.92

human SPPL2a (Homo sapiens) pIC50 of CC[C@H](CNC(=O)c1scnc1Cl)C(=O)N[C@@H]1C(=O)N2CC3(CC3)CN2C(=O)c2ccccc21 is 7.04

human SPPL2a (Homo sapiens) pIC50 of CC(C)NC(=O)c1nc(Cl)c(NC(=O)C[C@@H](C)C(=O)N[C@@H]2C(=O)N3CCCN3Cc3ccccc32)s1 is 9.00

human SPPL2a (Homo sapiens) pIC50 of Cc1c(F)ccc2nc(C[C@@H](C)C(=O)N[C@@H]3C(=O)N4CCCN4Cc4ccccc43)[nH]c12 is 6.94

human SPPL2a (Homo sapiens) pIC50 of Cc1cncc(-c2cc(NC(=O)C[C@@H](C)C(=O)N[C@@H]3C(=O)N4CCCN4Cc4ccccc43)n(C)n2)c1 is 8.40

human SPPL2a (Homo sapiens) pIC50 of CC[C@H](CNC(=O)c1sc(-c2cc(C)no2)nc1C)C(=O)N[C@@H]1C(=O)N2CCCN2Cc2ccccc21 is 7.92

human SPPL2a (Homo sapiens) pIC50 of CC[C@H](CNC(=O)c1sc(-c2ccc(C(F)(F)F)nc2)nc1Cl)C(=O)N[C@@H]1C(=O)N2CCCN2Cc2ccccc21 is 7.96

human SPPL2a (Homo sapiens) pIC50 of C[C@H](CC(=O)Nc1sc(-c2ccn(C)n2)nc1Cl)C(=O)N[C@@H]1C(=O)N2CCCN2Cc2ccccc21 is 8.40

human SPPL2a (Homo sapiens) pIC50 of CC(C)C(=O)Nc1cc(NC(=O)C[C@H](C(=O)N[C@@H]2C(=O)N3CC4(CC4)CN3C(=O)c3ccccc32)C2CCC2)n(C)n1 is 8.05

human SPPL2a (Homo sapiens) pIC50 of CCc1cc(-c2cc(NC(=O)C[C@@H](C)C(=O)N[C@@H]3C(=O)N4CCCN4Cc4ccccc43)n(C)n2)no1 is 8.10

human SPPL2a (Homo sapiens) pIC50 of C[C@H](CC(=O)Nc1sc(-c2ccc(C(F)(F)F)nc2)nc1Cl)C(=O)N[C@@H]1C(=O)N2CCCN2Cc2ccccc21 is 8.52

human SPPL2a (Homo sapiens) pIC50 of C[C@H](CC(=O)Nc1cc(-c2cncc(C(F)(F)F)c2)nn1C)C(=O)N[C@@H]1C(=O)N2CCCN2Cc2ccccc21 is 7.85

human SPPL2a (Homo sapiens) pIC50 of CC[C@H](CNC(=O)c1oncc1C)C(=O)N[C@@H]1C(=O)N2CCCN2Cc2ccccc21 is 7.00

human SPPL2a (Homo sapiens) pIC50 of CCn1nc(-c2ccco2)cc1NC(=O)C[C@@H](C)C(=O)N[C@@H]1C(=O)N2CCCN2Cc2ccccc21 is 8.00

human SPPL2a (Homo sapiens) pIC50 of Cc1nc(-c2ccc(C(F)(F)F)nc2)sc1C(=O)NC[C@H](C(=O)N[C@@H]1C(=O)N2CCCN2C(=O)c2ccccc21)C(F)(F)F is 7.27

human SPPL2a (Homo sapiens) pIC50 of Cc1cc(-c2nc(C)c(C(=O)NC[C@@H](C)C(=O)N[C@@H]3C(=O)N4CCCN4Cc4ccccc43)s2)on1 is 7.80

human SPPL2a (Homo sapiens) pIC50 of CC[C@H](CNC(=O)c1sc(C2=CCOCC2)nc1Cl)C(=O)N[C@@H]1C(=O)N2CCCN2Cc2ccccc21 is 7.10

----------
# log10(IC50) values compiled below
Molecular target: human SPPL2a (Homo sapiens)
Assay: Sppl2a TL (translocation) imaging assay in U-2 OS cells
Format: cell-based
Set-up: expressed in transfected cells
Settings: U-2 OS cells expressing human SPPL2a and EGFP-TNFα(aa1-76) NTF substrate; 24 h
Form field - Quantity: IC50; Unit: nM; Scale: log10

{"chemicalSmiles": "C[C@H](CC(=O)Nc1cc(NC(=O)C(C)(C)C)nn1C)C(=O)N[C@@H]1C(=O)N2CCCN2Cc2ccccc21", "log10(IC50)": 1.04}
{"chemicalSmiles": "Cc1cc(F)cc2nc(C[C@@H](C)C(=O)N[C@@H]3C(=O)N4CCCN4Cc4c(F)cccc43)[nH]c12", "log10(IC50)": 2.06}
{"chemicalSmiles": "C[C@H](CNC(=O)c1ccnn1C)C(=O)N[C@@H]1C(=O)N2CCCN2Cc2ccccc21", "log10(IC50)": 2.84}
{"chemicalSmiles": "Cc1ccc(-c2cc(NC(=O)C[C@@H](C)C(=O)N[C@@H]3C(=O)N4CCCN4Cc4ccccc43)n(C)n2)cn1", "log10(IC50)": 1.26}
{"chemicalSmiles": "CC[C@H](CNC(=O)c1sc(C2=CCOCC2)nc1C)C(=O)N[C@@H]1C(=O)N2CCCN2Cc2ccccc21", "log10(IC50)": 1.40}

Briefly, log10(IC50) measured for CCn1nc(-c2cc(C)no2)cc1NC(=O)C[C@@H](C)C(=O)N[C@@H]1C(=O)N2CCCN2Cc2ccccc21 : 1.18

Briefly, log10(IC50) measured for Cc1nc(-c2cncc(F)c2)sc1NC(=O)C[C@@H](C)C(=O)N[C@@H]1C(=O)N2CCCN2Cc2ccccc21 : 0.85

Briefly, log10(IC50) measured for O=C(C[C@H](C(=O)N[C@@H]1C(=O)N2CC3(CC3)CN2C(=O)c2ccccc21)C1CC1)Nc1sc(-c2ccc(C(F)(F)F)nc2)nc1Cl : 1.00

Briefly, log10(IC50) measured for CC[C@H](CNC(=O)c1sc(C2CC2)nc1C(F)(F)F)C(=O)N[C@@H]1C(=O)N2CC3(CC3)CN2C(=O)c2ccccc21 : 2.74

Briefly, log10(IC50) measured for C[C@H](Cc1nc2cccc(C(F)(F)F)c2[nH]1)C(=O)N[C@@H]1C(=O)N2CCCN2Cc2ccccc21 : 2.74

Briefly, log10(IC50) measured for CC[C@H](CNC(=O)c1sc(C(=O)NC(C)C)nc1C)C(=O)N[C@@H]1C(=O)N2CCCN2Cc2ccccc21 : 1.08

Briefly, log10(IC50) measured for Cc1nc(C(=O)NCC(F)F)sc1C(=O)NC[C@@H](C)C(=O)N[C@@H]1C(=O)N2CCCN2Cc2ccccc21 : 1.11

Briefly, log10(IC50) measured for Cc1nc(C(=O)NC(C)C)sc1NC(=O)C[C@@H](C)C(=O)N[C@@H]1C(=O)N2CCCN2Cc2ccccc21 : 0.30

Briefly, log10(IC50) measured for CC[C@H](CNC(=O)c1c(C)noc1C(F)(F)F)C(=O)N[C@@H]1C(=O)N2CC3(CC3)CN2C(=O)c2ccccc21 : 1.52
